test system: S. cerevisiae Mot1-301 ts growth rescue, BacTiter-Glo ATP luminescence; assay: restored Mot1-301 yeast growth at 38.5C – whole organism, S. cerevisiae, Mot1-301 ts mutant, luminescence, dose retest, SUMOylation pathway inhibitor project, confirmation (AID 463204);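 also: growth at restrictive 38.5 degrees C of Mot1-301 OY566 strain; actives raise luminescence by restoring growth of the ts mutant at high temperature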
Activity calls are given as the source filed them.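 The calls were made as follows: active = AC50 no more than ten times the top concentration tested, that is within one log above it; inconclusive = flat curve fit with activity between 30% and 70%, or invalid poor fit; inactive = AC50 beyond ten times the top tested dose.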
Returns: one label drawn from active, inactive

Example cases with answers are listed next.
COMPOUND | LABEL_CLASS
Cc1cc(C)cc(C(=O)NC(CC(N)=O)c2ccc(NCCN3CCOCC3)c([N+](=O)[O-])c2)c1 (configuration not stated) | inactive
CCOc1ccccc1N(CC(=O)Nc1ccccc1C(=O)N1CCCC1)S(C)(=O)=O | inactive
O=C(NCc1ccco1)C1CC(=O)N(c2ccc(Cl)cc2)C1 (configuration not stated) | inactive
Cc1[nH]n(-c2ccccc2)c(=O)c1C(C[N+](=O)[O-])c1ccc(Br)cc1 (configuration not stated) | inactive
CC(C)NC(=O)c1ccccc1-c1ccccc1 | inactive
CC1(C)CC(=O)C(C=Nc2ccc(O)c(N=CC3=C(O)CC(C)(C)CC3=O)c2)=C(O)C1 | inactive
COc1ccc(C)cc1S(=O)(=O)N1CCC(C(=O)NCCc2ccccc2)CC1 | inactive
Cc1ccc(S(=O)(=O)N2CCCC2C(=O)NCCc2ccccc2)cc1 (configuration not stated) | inactive
Cn1c(NCc2ccco2)nc2c1c(=O)n(Cc1ccc(Cl)cc1)c(=O)n2C | inactive
C/C(CC1(O)C(=O)Nc2ccccc21)=N\O (configuration not stated) | inactive

Qu. Any idea what this test logged for NNc1nc2sc3c(c2c(=O)n1-c1ccccc1)CCCC3 ?
Ans. inactive

Qu. Entry Cc1ccccc1-c1nc2ccc(Cl)cc2c(=O)n1O : call = ?
Ans. inactive

All figures here come from PubChem BioAssay AID463204.
